We begin with a simple list: items and their reported inhibition at 1 µM.
Target: FAAH (Mus musculus, UniProt O08914)
Sequence (O08914 1-579): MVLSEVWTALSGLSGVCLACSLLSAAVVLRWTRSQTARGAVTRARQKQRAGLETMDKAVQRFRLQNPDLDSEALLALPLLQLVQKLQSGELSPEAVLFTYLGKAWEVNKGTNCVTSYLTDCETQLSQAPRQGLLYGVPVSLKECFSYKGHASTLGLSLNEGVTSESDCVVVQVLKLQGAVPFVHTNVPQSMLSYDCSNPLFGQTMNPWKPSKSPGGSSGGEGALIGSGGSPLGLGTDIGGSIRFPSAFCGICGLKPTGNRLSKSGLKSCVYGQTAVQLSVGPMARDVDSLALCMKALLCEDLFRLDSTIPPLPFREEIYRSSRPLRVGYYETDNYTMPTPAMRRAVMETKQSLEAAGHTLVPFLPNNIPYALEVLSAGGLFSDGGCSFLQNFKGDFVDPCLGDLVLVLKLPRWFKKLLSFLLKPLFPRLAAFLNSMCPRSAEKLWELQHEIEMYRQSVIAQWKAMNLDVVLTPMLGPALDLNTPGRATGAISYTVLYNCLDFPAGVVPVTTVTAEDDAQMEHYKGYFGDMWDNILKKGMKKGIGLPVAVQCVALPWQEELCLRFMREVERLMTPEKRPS
Test: In vitro competitive activity-based protein profiling, FAAH, mouse
Conditions: read-out: FAAH % inh. 1 μM (mouse)

// worked examples, inhibition at 1 µM included
{"Compound": "O=C(O)c1ccn(C(=O)N2CCN(Cc3ccc(OC(F)(F)F)cc3-c3nnco3)CC2)n1 [Example 68]", "Measurement Kind": "inhibition at 1 µM", "Value Measured": "0 to 25%"}
{"Compound": "O=C(O)c1ccn(C(=O)N2CCN(Cc3ccc(Cl)cc3N3C4CCC3COC4)CC2)n1 [Example 105]", "Measurement Kind": "inhibition at 1 µM", "Value Measured": "0 to 25%"}
{"Compound": "O=C(O)c1ccn(C(=O)N2CCC3(CCCN3Cc3cc(Cl)cc(C(F)(F)F)c3)CC2)n1 [Example 86]", "Measurement Kind": "inhibition at 1 µM", "Value Measured": "0 to 25%"}

(Q) Answer briefly: inhibition at 1 µM recorded on FAAH (Mus musculus, UniProt O08914) for O=C(O)c1ccn(C(=O)N2CCN(Cc3cccc(Oc4ccncc4)c3)CC2)n1 [Example 59]
(A) 0 to 25%

(Q) Fill: inhibition at 1 µM (FAAH (Mus musculus, UniProt O08914)) for this compound O=C(O)c1nn(C(=O)N2CCC3(CCCN3Cc3cc4ccc(C(F)(F)F)cc4s3)CC2)cc1Cl [Example 139]
(A) > 75%

(Q) Give inhibition at 1 µM for O=C(O)c1ccn(C(=O)N2CCN(Cc3cccc(Oc4ccccn4)c3)CC2)n1 [Example 52] tested on FAAH (Mus musculus, UniProt O08914).
(A) 0 to 25%

(Q) Report inhibition at 1 µM under test system FAAH (Mus musculus, UniProt O08914) for O=C(O)c1ccn(C(=O)N2CCN(Cc3cc(Cl)cc(Oc4ccc(Cl)cc4)c3)CC2)n1 [Example 19] .
(A) > 75%

(Q) Provide inhibition at 1 µM, tested on FAAH (Mus musculus, UniProt O08914), for O=C(O)c1ccn(C(=O)N2CCN(Cc3cccc(Oc4cccc(Cl)c4)c3)CC2)n1 [Example 84] .
(A) 50 to 75%

(Q) System FAAH (Mus musculus, UniProt O08914). Read-out inhibition at 1 µM. Item O=C(O)c1ccn(C(=O)N2C[C@H]3C[C@H](OCc4ccccc4Cl)C[C@H]3C2)n1 [Example 15] . Report value.
(A) 25 to 50%

(Q) GET inhibition at 1 µM where system = FAAH (Mus musculus, UniProt O08914) and item = C[C@H]1CCCCN1c1cc(C(F)(F)F)ccc1CN1CCN(C(=O)n2ccc(C(=O)O)n2)CC1 [Example 110]
(A) 0 to 25%

(Q) # return inhibition at 1 µM for O=C(O)c1ccn(C(=O)N2CCN(Cc3cccc(Oc4cccnc4)c3)CC2)n1 [Example 18] , test system: FAAH (Mus musculus, UniProt O08914)
(A) 0 to 25%

(Q) Please respond with reported inhibition at 1 µM (system FAAH (Mus musculus, UniProt O08914)) for C[C@@H]1CC[C@H](C)N1c1cc(C(F)(F)F)ccc1CN1CCCC12CCN(C(=O)n1ccc(C(=O)O)n1)CC2 [Example 80] .
(A) 0 to 25%

(Q) Report inhibition at 1 µM under test system FAAH (Mus musculus, UniProt O08914) for CC(C)(O)C1CCN(c2cc(C(F)(F)F)ccc2CN2CCN(C(=O)n3ccc(C(=O)O)n3)CC2)CC1 [Example 109] .
(A) 0 to 25%

(Q) Recall the reported inhibition at 1 µM of CN(Cc1cc(Cl)ccc1C(F)(F)F)C1CCN(C(=O)n2cc(Cl)c(C(=O)O)n2)CC1 [Example 112] when tested on FAAH (Mus musculus, UniProt O08914).
(A) > 75%
